Parameter: EC50. Scope: all listed entries.
# target or system: T1, human LIGHT (TNFSF14), full length, membrane-bound (214E allele) (human, UniProt O43557 1-240)
# T1 construct: also called membrane LIGHT; human membrane LIGHT
# T1 sequence (O43557 whole entry K214E): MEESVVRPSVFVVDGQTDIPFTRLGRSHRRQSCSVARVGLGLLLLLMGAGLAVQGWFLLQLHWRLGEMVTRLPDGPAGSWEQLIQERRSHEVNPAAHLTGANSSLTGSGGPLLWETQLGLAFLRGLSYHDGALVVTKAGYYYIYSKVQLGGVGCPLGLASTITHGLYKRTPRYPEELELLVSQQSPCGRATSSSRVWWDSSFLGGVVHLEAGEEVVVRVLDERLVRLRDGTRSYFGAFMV
# protocol text: flow cytometry, EL4-LIGHT cells
Answer format: numeric, nM implied, no suffix.

Illustrative cases are given below, each with its answer.
binder: 3D12_var7 (antibody, human IgG4, V domains shown, human IgG4 (S241P, L248E, Kabat); also called 3D12 VL2VH3 (var7)) VH: QVQLVQSGAEVKKPGASVKVSCKASDYTFTDSEIHWVRQAPGQGLEWMGEIDPETGGTAYAQKFQGRVTLTADKSTSTAYMELSSLRSEDTAVYYCSRETDYFFDYWGQGTLVTVSS VL: DIQMTQSPSSLSASVGDRVTITCGASENIYGALNWYQRKQGKAPKLLIYGATNLADGVPSRFSGSGSGRDYTLTISSLQPEDVATYYCQNVLSTPWTFGQGTKLEIKR
endpoint unit: nM
measured number: 0.38
--
binder: 3B04_var6 (antibody, human IgG4, V domains shown, human IgG4 (S241P, L248E, Kabat); also called 3B04 VL2VH2 (var6)) VH: QVQLVQSGAEVKKPGASVKVSCKASGYTFTDYEMHWVRQAPGQGLEWIGEIDPETGDTAYSQKFQGRVTLTADKSTSTAYMEFSSLRSEDTAVYYCSRETDYFFDYWGQGTLVTVSS VL: DIQMTQSPSSLSASVGDRVTITCGASENIYGALNWYQRKQGKAPKLLIYGATNLADGVPSRFSGSGSGRDYTLTISSLQPEDFATYYCQNVLTTPWTFGQGTKLEIKR
endpoint unit: nM
measured number: 0.27
--
binder: 3B04_var16 (antibody, human IgG4, V domains shown, human IgG4 (S241P, L248E, Kabat); also called 3B04 VL4VH4 (var16); 3B04 variant 16) VH: QVQLVQSGAEVKKPGASVKVSCKASGYTFTDYEMHWVRQAPGQGLEWMGEIDPETGDTAYAQKFQGRVTLTADKSTSTAYMELSSLRSEDTAVYYCSRETDYFFDYWGQGTLVTVSS VL: DIQMTQSPSSLSASVGDRVTITCRASENIYGALNWYQQKPGKAPKLLIYGATNLAEGVPSRFSGSGSGRDYTLTISSLQPEDFATYYCQNVLTTPWTFGQGTKLEIKR
endpoint unit: nM
measured number: 0.24

Exercise: Which EC50 value is on record for 3D12 (antibody, human IgG4, V domains shown, chimeric: mouse variable domains on human IgG4 HC (S-to-P and L-to-E at 248) and human CL; also called Parental 3D12; 3D12 chimeric) VH: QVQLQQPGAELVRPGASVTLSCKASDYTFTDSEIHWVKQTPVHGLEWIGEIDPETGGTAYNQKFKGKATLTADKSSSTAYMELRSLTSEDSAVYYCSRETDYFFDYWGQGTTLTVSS VL: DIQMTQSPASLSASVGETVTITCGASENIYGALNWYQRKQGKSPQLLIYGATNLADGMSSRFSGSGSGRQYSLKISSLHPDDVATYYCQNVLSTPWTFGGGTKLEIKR ?
Solution: 0.08

Exercise: Which EC50 value is on record for 3D12_var13 (antibody, human IgG4, V domains shown, human IgG4 (S241P, L248E, Kabat); also called 3D12 VL4VH1 (var13)) VH: QVQLVQSGAEVKKPGASVKVSCKASDYTFTDSEIHWVRQAPGQGLEWIGEIDPETGGTAYNQKFKGRATLTADKSTSTAYMELSSLRSEDTAVYYCSRETDYFFDYWGQGTLVTVSS VL: DIQMTQSPSSLSASVGDRVTITCRASENIYGALNWYQQKPGKAPKLLIYGATNLAEGVPSRFSGSGSGRDYTLTISSLQPEDVATYYCQNVLSTPWTFGQGTKLEIKR ?
Solution: 0.24
